Each entry below carries its recorded pIC50.
# SYSTEM_TESTED: Beta-lactamase (Escherichia coli K-12, UniProt P00811)
# Sequence (P00811 whole entry): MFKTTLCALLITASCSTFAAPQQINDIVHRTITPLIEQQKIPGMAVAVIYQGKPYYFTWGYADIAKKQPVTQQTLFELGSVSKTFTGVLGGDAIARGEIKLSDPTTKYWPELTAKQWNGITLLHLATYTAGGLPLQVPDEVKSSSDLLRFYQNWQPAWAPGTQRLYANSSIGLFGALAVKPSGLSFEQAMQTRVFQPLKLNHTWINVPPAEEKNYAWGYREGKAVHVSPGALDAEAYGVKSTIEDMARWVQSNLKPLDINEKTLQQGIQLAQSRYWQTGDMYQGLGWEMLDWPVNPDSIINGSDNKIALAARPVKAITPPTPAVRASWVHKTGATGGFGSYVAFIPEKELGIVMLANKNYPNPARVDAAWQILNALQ
# MEASUREMENT_PROTOCOL: Compound was tested for the inhibition of beta-lactamase
The scale used: pIC50 is minus the common logarithm of the concentration in molar units.

# get_value(readout='pIC50', item= Clc1ccc(COC(Cn2ccnc2)c2ccc(Cl)cc2Cl)cc1 (stereo not given) )
4.60

Continue with COc1ccc(Cl)cc1C(=O)NCCc1ccc(S(=O)(=O)NC(=O)NC2CCCCC2)cc1 [GLYBURIDE]
3.52

Continue with O=C(OCc1ccccc1)c1ccccc1 [BENZYL BENZOATE]
4.05

---

# SYSTEM_TESTED: Malate dehydrogenase, mitochondrial (Sus scrofa) (UniProt P00346)
# Sequence (whole entry): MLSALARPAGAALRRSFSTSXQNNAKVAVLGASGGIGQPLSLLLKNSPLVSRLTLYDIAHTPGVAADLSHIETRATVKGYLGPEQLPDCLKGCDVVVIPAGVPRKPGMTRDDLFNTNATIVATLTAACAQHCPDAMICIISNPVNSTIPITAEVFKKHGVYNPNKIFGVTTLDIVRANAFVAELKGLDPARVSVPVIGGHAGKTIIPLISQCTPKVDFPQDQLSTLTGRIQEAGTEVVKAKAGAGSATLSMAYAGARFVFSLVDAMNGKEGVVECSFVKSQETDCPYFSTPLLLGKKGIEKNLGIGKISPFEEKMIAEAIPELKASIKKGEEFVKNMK
# MEASUREMENT_PROTOCOL: Compound was tested for the inhibition of malate dehydrogenase (MDH) at 200 uM
Each entry below carries its recorded inhibition.
Quick note: give the figure in %, leave out the unit.

Cc1ccc(C)c(OCCCC(C)(C)C(=O)O)c1; 14

For Malate dehydrogenase, mitochondrial (Sus scrofa) (UniProt P00346), provide inhibition of Nc1ccc(O)c(C(=O)O)c1 please.
18

---

# SYSTEM_TESTED: Malate dehydrogenase, mitochondrial (Sus scrofa) (UniProt P00346)
# Sequence (whole entry): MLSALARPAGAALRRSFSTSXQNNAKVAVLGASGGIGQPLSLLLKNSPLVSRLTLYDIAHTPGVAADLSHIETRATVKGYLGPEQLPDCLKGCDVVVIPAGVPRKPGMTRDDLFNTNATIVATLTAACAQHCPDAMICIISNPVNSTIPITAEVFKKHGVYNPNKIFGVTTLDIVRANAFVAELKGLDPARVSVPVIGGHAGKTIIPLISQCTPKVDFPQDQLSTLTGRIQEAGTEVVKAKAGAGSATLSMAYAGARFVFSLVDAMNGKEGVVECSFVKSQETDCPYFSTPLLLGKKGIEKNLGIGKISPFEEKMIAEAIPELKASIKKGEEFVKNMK
# MEASUREMENT_PROTOCOL: Compound was tested for the inhibition of malate dehydrogenase (MDH) at 200 uM
EXPERIMENTAL_READOUT: inhibition

Below, each entry is followed by its recorded inhibition result.
Nc1ccc(S(=O)(=O)Nc2ncccn2)cc1; < 5%
NS(=O)(=O)c1cc(C2(O)NC(=O)c3ccccc32)ccc1Cl (stereo not drawn); < 5%

Next:
# get_value(readout='inhibition', item= Nc1nc2ccc(OC(F)(F)F)cc2s1 )
< 5%
